Recorded measurements of TGI, one per entry
Test system: A498 renal
Assay: NCI tumour cell line growth inhibition, 48 h
VALUE_KIND: TGI

INSERT INTO assay_data (compound, test_result) VALUES
  ('CNC(=O)OC(C)CN1c2ccccc2Sc2ccc(Cl)cc21 (stereo unspecified)', '> 10 µM'),
  ('C/C(=N\NS(=O)(=O)c1ccccc1)c1ccc(Cl)c(Cl)c1', '> 100 µM'),
  ('COc1ccc(-c2nc3sc4c(c3c(=O)[nH]2)CCCCCC4)cc1', '> 33.2 µM'),
  ('CC1=Nc2ccccc2S/C1=C(/C)NNC(=O)C(N)=O', '> 100 µM'),
  ('CS(=O)(=O)N1CC(CCl)c2ccc([N+](=O)[O-])cc21 (stereo unspecified)', '> 100 µM'),
  ('O=C(CN1CCOCC1)Nc1nc(-c2ccc(Cl)cc2)cs1', '> 100 µM'),
  ('CC(C)(Br)C(Br)CCC(C)(Br)C(Br)CO (stereo unspecified)', '> 10 µM'),
  ('CCN(CC)CCC(=O)c1ccc(Oc2ccc(Cl)cc2)cc1', '31.7 µM'),
  ('COC(C(=O)[O][Ge]([CH3])([CH3])[CH3])c1ccccc1 (stereo unspecified)', '> 100 µM'),
  ('NCCOCCOCCNc1nc(Cc2ccccc2)nc(NCCCN2CCCC2=O)n1', '> 100 µM'),
  ('CCOC(=O)N(Cc1cccs1)c1cc(OC)c(OC)c(OC)c1', '> 100 µM'),
  ('CC1OC(O[C@@H]2OC=C(C=O)[C@@]3(O)CC[C@H](C)[C@@H]23)C(O)C(O)C1O (stereo partly specified)', '> 100 µM'),
  ('CCOC(=O)N/N=C(/OCC)c1ccccc1', '> 100 µM'),
  ('Nn1c(NNC(=O)C(=O)Nc2cc(Cl)c(Cl)cc2Cl)n[nH]c1=S', '> 100 µM'),
  ('[N-]=[N+]=Nc1c(C=O)c(=O)n2c3c(cccc13)CCC2', '28.8 µM'),
  ('COc1ccc2nc(-c3ccc(-c4noc(-c5cc(OC)c(OC)c(OC)c5)n4)cc3)[nH]c2c1', '> 100 µM');

* * *

Tested on: NCI-H226 lung
Assay: NCI tumour cell line growth inhibition, 48 h
VALUE_KIND: TGI

INSERT INTO measurements (molecule, measurement_target, test_result) VALUES
  ('CC1C=C(OC(=O)c2ccccc2)C(=O)C(n2cc(F)c(=O)[nH]c2=O)O1 (stereo not drawn)', 'NCI-H226 lung', '> 100 µM'),
  ('CCOC(=O)N(Cc1cccs1)c1cc(OC)c(OC)c(OC)c1', 'NCI-H226 lung', '> 100 µM'),
  ('O=C1/C(=C\c2c[nH]c3ccccc23)c2ccccc2N1c1c(Cl)cccc1Cl', 'NCI-H226 lung', '3.65 µM');

* * *

Test system: PC-3 prostate
Experiment: NCI tumour cell line growth inhibition, 48 h
Recorded measurements of TGI, one per entry
VALUE_KIND: TGI (µM)

INSERT INTO assay_data (compound, value_kind, reading_qualifier, test_result) VALUES
  ('N=C(N)c1ccc(-c2ccc(-c3cc(Cl)cc(Cl)c3)o2)nc1', 'TGI', '=', 3.25),
  ('NCCn1c(=O)[nH]c(=O)[nH]c1=S', 'TGI', '>', 100),
  ('CCN(CC)CCC(=O)c1ccc(Oc2ccc(Cl)cc2)cc1', 'TGI', '=', 28.3),
  ('O=C(/C=C/c1csc(-c2ccccc2)n1)NCc1ccc(C(=O)NCCc2ccccc2)cc1', 'TGI', '>', 100),
  ('CCCNC(=O)c1cc(NC(=O)c2cc(NC(=O)/C=C/c3ccccc3)c(OC)c(OC)c2)c(OC)c(OC)c1', 'TGI', '=', 33.5),
  ('N=c1oc2cc(O)ccc2cc1C(=O)NCc1ccccc1', 'TGI', '>', 100),
  ('O=C1/C(=C\c2c[nH]c3ccccc23)c2ccccc2N1c1c(Cl)cccc1Cl', 'TGI', '=', 2.96),
  ('Nc1nc2c(c3ncncc13)C(c1cccc(C(F)(F)F)c1)Cc1ncncc1-2 (stereo not drawn)', 'TGI', '>', 100);
